The values you see were collected from patent US10272095B2.

- Tested on: NQO1 specific enzyme activity in BEAS-2B cells
- Procedure Details: BEAS-2B NQO1 MTT assay
- Type: cell-based
- Setup Conditions: Homo sapiens, BEAS-2B, 48 h, NQO1 specific enzyme activity induction in BEAS-2B cells, 48 hours; read-out: EC50
Structures can show the parent of a compound that is named as a salt.
Assay Endpoint: EC50

Qu. Using the record for Cc1c(C(c2ccc3c(c2)C(N2Cc4cccnc4O[C@H](C)C2)CC3)C(C)(C)C(=O)O)ccc2c1nnn2C (stereo partly drawn) [Example 42, Formic Acid Salt] , report its EC50.
Ans. 1 to 10 nM

Qu. Using the record for COc1ccc2c(c1)CN(C1CCc3ccc(C(CC(=O)O)c4ccc5c(nnn5C)c4C)cc31)CC(C)(C)O2 (stereo not drawn) , report its EC50.
Ans. 1 to 10 nM

Qu. Using the record for CCn1nnc(CCC(c2ccc3c(c2)C(N2Cc4ccccc4OC(C)(C)C2)CC3)C(C)(C)C(=O)O)n1 (stereo not drawn) [Example 64, Trifluoroacetic Acid Salt] , report its EC50.
Ans. 10 to 100 nM

* * *

- Tested on: NQO1 specific enzyme activity in BEAS-2B cells
- Procedure Details: BEAS-2B NQO1 MTT assay
- Assay type: cell-based
- Setup Conditions: Homo sapiens, BEAS-2B, 48 h, NQO1 specific enzyme activity induction in BEAS-2B cells, 48 hours; read-out: EC50
pEC50: −log10 of the molar value. Structures can show the parent of a compound that is named as a salt.
Give pEC50 for every item shown.

Qu. Using the record for Cc1ccc2c(c1)CN(C1CCc3ccc(C(c4ccc5c(nnn5C)c4C)C(C)(C)C(=O)O)cc31)C[C@@H](C)O2 (stereo partly shown) [Example 31, Formic Acid Salt] , report its pEC50.
Ans. 8.00 to 9.00

Qu. Using the record for CCn1nnc2c(C)c(C(CC(=O)O)c3ccc4c(c3)C3C(CCN3C(=O)OC(C)(C)C)C4)ccc21 (stereo not shown) , report its pEC50.
Ans. 6.00 to 7.00

Qu. Using the record for CCCC1CCC(CN2C(=O)CC3Cc4ccc(C(CC(=O)O)c5ccc6c(nnn6C)c5C)cc4C32)CC1 (stereo not shown) , report its pEC50.
Ans. 8.00 to 9.00

Qu. Using the record for CC[C@@H]1CN([C@H]2CCc3ccc([C@H](c4ccc5c(nnn5C)c4C)C(C)(C)C(=O)O)cc32)Cc2cnccc2O1 (relative stereo) , report its pEC50.
Ans. 5.00 to 6.00

Qu. Using the record for Cc1c(C(CC(=O)O)c2ccc3c(c2)C2C(CCN2C(=O)Cc2ccccc2Cl)C3)ccc2c1nnn2C (stereo not shown) , report its pEC50.
Ans. 5.00 to 6.00

Qu. Using the record for CCCC(C)C(=O)N1CCC2Cc3ccc(C(CC(=O)O)c4ccc5c(nnn5C)c4C)cc3C21 (stereo not shown) , report its pEC50.
Ans. 5.00 to 6.00

Qu. Using the record for Cc1c(C(CC(=O)O)c2ccc3c(c2)C(N2Cc4cc(C#N)ccc4OC(C)(C)C2)CC3)ccc2c1nnn2C (stereo not shown) [Example 28, Formic Acid Salt] , report its pEC50.
Ans. > 9.00

* * *

- Test system: NQO1 specific enzyme activity in BEAS-2B cells
- Procedure Details: BEAS-2B NQO1 MTT assay
- Type: cell-based
- Setup Conditions: Homo sapiens, BEAS-2B, 48 h, NQO1 specific enzyme activity induction in BEAS-2B cells, 48 hours; read-out: EC50
- Source text: NAD(P)H:quinone oxidoreductase 1 (NQO1), also called DT diaphorase, is a homodimeric FAD-containing enzyme that catalyzes obligatory NAD(P)H-dependent two-electron reductions of quinones and protects cells against the toxic and neoplastic effects of free radicals and reactive oxygen species arising from one-electron reductions. […] On day one, frozen BEAS-2B cells (ATCC) are thawed in a water bath, counted, and re-suspended at a concentration of 250,000 cells/mL. […]
pEC50: −log10 of the molar value. Where a name gives a salt, the structure may show the parent alone.
Give pEC50 for every item shown.

Qu. NQO1 specific enzyme activity in BEAS-2B cells / pEC50 / COc1cc(C(CC(=O)O)c2ccc3c(c2)C2C(CCN2C(=O)OC(C)(C)C)C3)c(C)c2nnn(C)c12 (stereo not shown) : value?
Ans. 7.00 to 8.00

Qu. NQO1 specific enzyme activity in BEAS-2B cells / pEC50 / COc1cc(C(CC(=O)O)c2ccc3c(c2)C(N2Cc4ccccc4OC(C)(C)C2)CC3)cc2nnn(C)c12 (stereo not shown) [Example 43, Formate Salt] : value?
Ans. 8.00 to 9.00

Qu. NQO1 specific enzyme activity in BEAS-2B cells / pEC50 / Cc1c(C(CC(=O)O)c2ccc3c(c2)C2C(CCN2C(=O)CC(C)(C)C)C3)ccc2c1nnn2C (stereo not shown) : value?
Ans. 5.00 to 6.00

Qu. NQO1 specific enzyme activity in BEAS-2B cells / pEC50 / CCCc1cn(CCC(c2ccc3c(c2)C(N2Cc4ccccc4OC(C)(C)C2)CC3)C(C)(C)C(=O)O)nn1 (stereo not shown) [Example 65, Trifluoroacetic Acid Salt] : value?
Ans. 7.00 to 8.00
